For each of the compounds below, state its inhibition at 1.25 µM.
- target: mUSP18 (Mus musculus)
- Construct: (46-368); His-tag (N); made in house
- Sequence (Q9WTV6 46-368): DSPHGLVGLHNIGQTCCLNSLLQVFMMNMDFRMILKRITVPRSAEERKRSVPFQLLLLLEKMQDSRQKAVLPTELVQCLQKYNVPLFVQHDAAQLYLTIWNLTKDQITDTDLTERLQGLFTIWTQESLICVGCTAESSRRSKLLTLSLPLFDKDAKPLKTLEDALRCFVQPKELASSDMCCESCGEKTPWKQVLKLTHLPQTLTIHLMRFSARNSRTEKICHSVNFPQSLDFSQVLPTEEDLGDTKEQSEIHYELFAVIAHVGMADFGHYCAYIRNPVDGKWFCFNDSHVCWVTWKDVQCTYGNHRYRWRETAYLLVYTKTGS
- assay-procedure: High-throughput screening, ISG15ct-RhoMP, single dose 1.25 µM
- Type: biochemical, murine
- applied-conditions: mUSP18 %inhibition; carboxylic acid (CA) with coupling reagents DIC/HOBT; read-out: %inh CA + DIC/HOBT
Answers are plain numbers, in %.

Some solved cases for reference:
Cn1cc(-c2ocnc2C(=O)O)cn1 :: 14.3
O=C(O)c1ccc(N2CCOCC2)cc1 :: 15.8

Please state inhibition at 1.25 µM for every compound in the list that follows.
1. O=C(O)C(Br)c1ccccc1 (stereo not shown)
2. O=C(O)c1ccnc(C2CC2)n1
3. O=C(O)c1cn(CC2CCCO2)nn1 (stereo not shown)

-9.9
1.21
8.31

Please state inhibition at 1.25 µM for every compound in the list that follows.
1. O=C(O)c1cncc(N2CCCC2)n1
2. O=C(O)c1cccnc1N1CCCCC1

4.99
6
